Assignment: determine reported GRinf for the given compounds.
Tested on: Mycobacterium tuberculosis Erdman (autoluminescent)
METHOD DESCRIPTION: GRinf, maximum normalised growth rate inhibition (three-drug combination) (unitless (-1 to 1)); higher = less effect (negative = killing)
MEASUREMENT CONDITIONS: in vitro model: cholesterol-high 0.2 mM; time point: terminal (~4-5 doublings, model-specific)
Numbers only.

Would you please look over these solved cases?
# COMPOUND, GRinf
rows = [
    ("COc1nc2ccc(Br)cc2cc1[C@@H](c1ccccc1)[C@@](O)(CCN(C)C)c1cccc2ccccc12 [bedaquiline] + CC[C@@H](CO)NCCN[C@@H](CC)CO [ethambutol] + O=[N+]([O-])c1cn2c(n1)OC[C@@H](OCc1ccc(OC(F)(F)F)cc1)C2 [pretomanid]", -0.825),
    ("CC(=O)NC[C@H]1CN(c2ccc(N3CCOCC3)c(F)c2)C(=O)O1 [linezolid] + COc1c(N2C[C@@H]3CCCN[C@@H]3C2)c(F)cc2c(=O)c(C(=O)O)cn(C3CC3)c12 [moxifloxacin] + O=[N+]([O-])c1cn2c(n1)OC[C@@H](OCc1ccc(OC(F)(F)F)cc1)C2 [pretomanid]", -0.722),
    ("CC(C)/N=c1\\cc2n(-c3ccc(Cl)cc3)c3ccccc3nc-2cc1Nc1ccc(Cl)cc1 [clofazimine] + CC(=O)NC[C@H]1CN(c2ccc(N3CCOCC3)c(F)c2)C(=O)O1 [linezolid] + COc1c(N2C[C@@H]3CCCN[C@@H]3C2)c(F)cc2c(=O)c(C(=O)O)cn(C3CC3)c12 [moxifloxacin]", -1),
    ("COc1nc2ccc(Br)cc2cc1[C@@H](c1ccccc1)[C@@](O)(CCN(C)C)c1cccc2ccccc12 [bedaquiline] + CC(C)/N=c1\\cc2n(-c3ccc(Cl)cc3)c3ccccc3nc-2cc1Nc1ccc(Cl)cc1 [clofazimine] + COc1c(N2C[C@@H]3CCCN[C@@H]3C2)c(F)cc2c(=O)c(C(=O)O)cn(C3CC3)c12 [moxifloxacin]", -0.535),
]

For each listed entry, give its GRinf.
1. CC(C)/N=c1\cc2n(-c3ccc(Cl)cc3)c3ccccc3nc-2cc1Nc1ccc(Cl)cc1 [clofazimine] + O=[N+]([O-])c1cn2c(n1)OC[C@@H](OCc1ccc(OC(F)(F)F)cc1)C2 [pretomanid] + CO[C@H]1/C=C/O[C@@]2(C)Oc3c(C)c(O)c4c(O)c(c(/C=N/N5CCN(C6CCCC6)CC5)c(O)c4c3C2=O)NC(=O)/C(C)=C\C=C\[C@H](C)[C@H](O)[C@@H](C)[C@@H](O)[C@@H](C)[C@H](OC(C)=O)[C@@H]1C [rifapentine]
2. COc1nc2ccc(Br)cc2cc1[C@@H](c1ccccc1)[C@@](O)(CCN(C)C)c1cccc2ccccc12 [bedaquiline] + CC(=O)NC[C@H]1CN(c2ccc(N3CCOCC3)c(F)c2)C(=O)O1 [linezolid] + NC(=O)c1cnccn1 [pyrazinamide]
3. COc1nc2ccc(Br)cc2cc1[C@@H](c1ccccc1)[C@@](O)(CCN(C)C)c1cccc2ccccc12 [bedaquiline] + COc1c(N2C[C@@H]3CCCN[C@@H]3C2)c(F)cc2c(=O)c(C(=O)O)cn(C3CC3)c12 [moxifloxacin] + O=[N+]([O-])c1cn2c(n1)OC[C@@H](OCc1ccc(OC(F)(F)F)cc1)C2 [pretomanid]
4. CC(=O)NC[C@H]1CN(c2ccc(N3CCOCC3)c(F)c2)C(=O)O1 [linezolid] + COc1c(N2C[C@@H]3CCCN[C@@H]3C2)c(F)cc2c(=O)c(C(=O)O)cn(C3CC3)c12 [moxifloxacin] + CO[C@H]1/C=C/O[C@@]2(C)Oc3c(C)c(O)c4c(O)c(c(/C=N/N5CCN(C)CC5)c(O)c4c3C2=O)NC(=O)/C(C)=C\C=C\[C@H](C)[C@H](O)[C@@H](C)[C@@H](O)[C@@H](C)[C@H](OC(C)=O)[C@@H]1C [rifampicin]

## Output
[-0.886, -0.793, -0.571, -0.901]

Attribution: the supplement of paper PMC8617591
